assay_summary: Pharmacokinetics of five components in rat plasma after oral administration of RPT, LPT and HPT extracts (UHPLC-MS/MS)
condition_details: male, SD, in vivo, 1.9 g/kg, MRT0-t
Measured MRT last, listed per entry for reference.
Hi! Could you send only the number? It should be in h, unit omitted.

Ask | Requested read-out: MRT last. Entry: COc1cc(/C=C/C(=O)O[C@H]2[C@H](O)[C@@H](CO)O[C@@]2(CO)O[C@H]2O[C@H](CO)[C@@H](O)[C@H](O)[C@H]2O)ccc1O [A5, Sibiricose A5]
Reply | 2.64

Ask | Same question for COc1cc(/C=C/C(=O)O[C@H]2[C@H](O)[C@@H](CO)O[C@@]2(CO)O[C@H]2O[C@H](COC(=O)c3ccc(O)cc3)[C@@H](O)[C@H](O)[C@H]2O)cc(OC)c1OC [TFSA, tenuifoliside A] please.
Reply | 2.92

Ask | Same question for COc1cc(C=CC(=O)OC2C(O)C(CO)OC2(CO)OC2OC(CO)C(O)C(O)C2O)cc(OC)c1O (stereo not drawn) [A6, Sibiricose A6] please.
Reply | 3.21

These measurements were taken from paper PMC7534330.
